- assayed target: T1, huNABA-avi-his (hybrid protein N-A1-B3-A2: N and A1 domains of human BGP, B3 domain of human CEA, A2 domain … (human, biotinylated at the avi tag (in vivo, co-transfected biotin ligase)))
- T1 construct: also called NABA-avi-his reagent; biotinylated NABA
- T1 chain: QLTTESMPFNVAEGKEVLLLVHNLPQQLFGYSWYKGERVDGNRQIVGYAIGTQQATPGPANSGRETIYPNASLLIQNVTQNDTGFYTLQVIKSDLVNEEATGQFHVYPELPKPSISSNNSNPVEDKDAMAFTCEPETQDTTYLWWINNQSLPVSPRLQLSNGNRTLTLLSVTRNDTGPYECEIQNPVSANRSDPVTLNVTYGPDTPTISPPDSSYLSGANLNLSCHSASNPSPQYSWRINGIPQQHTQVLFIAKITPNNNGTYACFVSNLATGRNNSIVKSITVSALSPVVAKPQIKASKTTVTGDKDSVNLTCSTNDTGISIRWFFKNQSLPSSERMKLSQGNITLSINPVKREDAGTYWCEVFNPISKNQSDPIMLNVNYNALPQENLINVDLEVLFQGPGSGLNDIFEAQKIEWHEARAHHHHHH
- protocol: Biacore, Fab on immobilized NABA-avi-his; column Monovalent Affinity
Recorded kon by entry
Your answer should be a plain number; it is taken to be in M⁻¹ s⁻¹.

For orientation, consider the following solved cases.
binder	value units	reported result
3A1 (Fab, V domains shown, also called pAC21 (3A1); 3A1 wt/lc) VH: QVQLVQSGSELKKPGASVKVSCKASGYTFTEFGMNWVRQAPGQGLEWMGWINTKTGEATYVEEFKGRFVFSLDTSVSTAYLQISSLKAEDTAVYYCARWDFYDYVEAMDYWGQGTTVTVSS VL: DIQMTQSPSSLSASVGDRVTITCKASANVGNNVAWYQQKPGKAPKLLIYLASNRSGGVPSRFSGSGSGTDFTLTISSLQPEDFATYYCHQYYTYPLFTFGQGTKLEIK	M⁻¹ s⁻¹	46800
H3 Full (5) 19 (Fab, V domains shown) VH: QVQLVQSGSELKKPGASVKVSCKASGYTFTEFGMSWVRQAPGQGLEWMGWINTKTGEATYVEEFKGRFVFSLDTSVSTAYLQISSLKAEDTAVYYCARWDAFEYVKALDYWGQGTTVTVSS VL: DIQMTQSPSSLSASVGDRVTITCKASQNVGTNVAWYQQKPGKAPKLLIYSASYRYSGVPSRFSGSGSGTDFTLTISSLQPEDFATYYCHQYYTYPLFTFGQGTKLEIK	M⁻¹ s⁻¹	54200

Continue with the binder presented below.
# return recorded kon for entry anti-CEA Fab with affinity matured heavy chain CH7A H4E9 and affinity matured light chain CL1A pAC18 (Fab, V domains shown, Fab format, bacterially expressed; also called CH7A H4E9 and CL1A pAC18) VH: QVQLVQSGSELKKPGASVKVSCKASGYTFTEFGMNWVRQAPGQGLEWMGWINTKTGEATYIEEFKGRFVFSLDTSVSTAYLQISSLKAEDTAVYYCARWDFYDYVEAMDYWGQGTTVTVSS VL: DIQMTQSPSSLSASVGDRVTITCKASAAVGTYVAWYQQKPGKAPKLLIYSASYRKRGVPSRFSGSGSGTDFTLTISSLQPEDFATYYCHQYYTYPLFTFGQGTKLEIKR 36400

meta.source: patent US20230365711A1
